species on record: Rattus norvegicus; assay: Open TG-GATES - Regimen: Single; type: toxicity, organism-based, Sprague-Dawley; design: regimen Single, gender Male, age 6 weeks; conditions: in vivo, po, 100 mg/kg, 6 h, tissue Blood, route gavage, dose level Low
ENDPOINT NAME: MCH (pg)
Give bare numbers, in pg.

COC1=CC(=O)C[C@@H](C)[C@]12Oc1c(Cl)c(OC)cc(OC)c1C2=O [GRISEOFULVIN] | 22
COc1ccc2[nH]c([S+]([O-])Cc3ncc(C)c(OC)c3C)nc2c1 (centres undefined) [OMEPRAZOLE] | 21.1
CCOC(=O)CCC(=O)O[C@H]1[C@H](O[C@@H]2[C@@H](C)[C@H](O[C@H]3C[C@@](C)(OC)[C@@H](O)[C@H](C)O3)[C@@H](C)C(=O)O[C@H](CC)[C@@](C)(O)[C@H](O)[C@@H](C)C(=O)[C@H](C)C[C@@]2(C)O)O[C@H](C)C[C@@H]1N(C)C [ERYTHROMYCIN ETHYLSUCCINATE] | 20.9

[in] Suppose we examine the compound NC(N)=Nc1nc(CSCCC(N)=NS(N)(=O)=O)cs1 [FAMOTIDINE] ; what MCH value has been reported?
[out] 22.2
